Target: Biotinylated ASGPR (ASGPr H1 wild type) (Homo sapiens (Human), UniProt P07306)
Sequence (P07306 161-278): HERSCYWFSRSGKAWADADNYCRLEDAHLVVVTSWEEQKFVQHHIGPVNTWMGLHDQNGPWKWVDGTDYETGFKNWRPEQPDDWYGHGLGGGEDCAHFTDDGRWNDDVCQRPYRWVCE
pKd: −log10 of the molar value.
reported_metric: pKd

[
  {
    "item_smiles": "[N-]=[N+]=N[C@H]1[C@H]2OC[C@](CO)(O2)[C@H](O)[C@@H]1O",
    "reported_metric": "pKd",
    "numeric_readout": 5.05
  }
]
